This listing pairs binders with measured Top (best-fit).
# System Tested: T1, human TIGIT over-expressed on cells (human, UniProt Q495A1 22-244)
# T1 construct: also called CHO-K1/human TIGIT cells; CHO cells expressing human TIGIT
# T1 sequence: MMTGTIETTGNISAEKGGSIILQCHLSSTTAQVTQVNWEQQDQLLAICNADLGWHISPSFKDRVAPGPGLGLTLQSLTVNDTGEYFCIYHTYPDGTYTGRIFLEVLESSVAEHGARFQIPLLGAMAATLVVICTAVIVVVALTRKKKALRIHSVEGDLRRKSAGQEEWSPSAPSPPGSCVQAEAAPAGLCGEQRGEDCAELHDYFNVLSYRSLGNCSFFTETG
# Procedure Details: competition FACS, CHO cells expressing human TIGIT; competitor PVR recombinant protein

For orientation, consider the following solved cases.
Binder	Endpoint Name	Result
11D8E12A4 (antibody, V domains shown, Mouse monoclonal antibody; also called mouse anti-human TIGIT monoclonal antibody 11D8E12A4) VH: EVLLQQSGPELVKPGASVKIPCKASGYTFTDYNMDWVKQSHGKSLEWIGDINPNNGGTIYNQKFKGKATLTVDKSSSTAYMELRSLTSEDTAVYYCARRWLLLVYTMDYWGQGTSVTVSS VL: QIVLTQSPAIMSASPGEKVTISCSASSSVSYMYWYQQKPGSSPKPWIYRTSNLASGVPARFSGSGSGTSYSLTISSMEAEDAATYYCHQYHNYPPTFGGGTKLEIK	Top (best-fit)	108
70A11A8E6 (antibody, V domains shown, Mouse monoclonal antibody; also called mouse anti-human TIGIT monoclonal antibody 70A11A8E6) VH: DVQLQESGPGLVKPSQSLSLTCTVTGYSITSDYAWNWIRQFPGNKLEWMGYIIYSGSTSYNPSLKSRISITRDTSKNQFFLQLNSVTTEDTATYYCARGWFRRPDYWGQGTTLTVSS VL: DIVMTQSHEFMSTSLGDRVSITCKASQDVSTAVAWHQQKPGQSPKQLIYSASYRYTGVPDRFTGSGSGTDFTFTISNMQAEDLAVYYCQQHYSVPLTFGAGTKLELK	Top (best-fit)	113
104G12E12G2 (antibody, V domains shown, Mouse monoclonal antibody; also called mouse anti-human TIGIT monoclonal antibody 104G12E12G2) VH: EVQLQQSGPELVKPGASVKISCKASGYSFTGSYIHWVKQNHVKTLEWIGRINPHNGPTSYNQNFKGKASLTVDLSSSTAYMEVHSLTSEDSAVYYCVRYDGYYGGALDYWGQGTSVTVSS VL: DIQMTQSPSSLSASLGERVSLTCRASQEISGYLSWLQQKPDGTIKRLIYAASTLDSGVPKRFSGSRSGSDYSLTISSLESEDFADYYCLQYASYPYTFGGGTKLEIK	Top (best-fit)	56.9

Exercise: Would you mind telling me what Top (best-fit) value was observed for 48B5G4E12 (antibody, V domains shown, Mouse monoclonal antibody; also called mouse anti-human TIGIT monoclonal antibody 48B5G4E12) VH: QVQLQQPGAELVKPGASVKMSCKASGYTFTSYNMHWVKQTPGQGLEWIGGIYPGNGATSYNQKFKGKATLTADKSSSTAYMQLSSLTSEDSAVYYCARSGLRAMDYWGQGTSVTVSS VL: QIVLTQSPAIMSASPGEKVTMTCSASSSVSYMYWYQQKTGSSPRLLIYDTSNLASGVPVRFSGSGSGTSYSLTISRMEAEDAATYYCQQWSSYPYTFGGGTKLEIK ?
Solution: 132

Exercise: Would you mind telling me what Top (best-fit) value was observed for 64G1E9B4 (antibody, V domains shown, Mouse monoclonal antibody; also called mouse anti-human TIGIT monoclonal antibody 64G1E9B4) VH: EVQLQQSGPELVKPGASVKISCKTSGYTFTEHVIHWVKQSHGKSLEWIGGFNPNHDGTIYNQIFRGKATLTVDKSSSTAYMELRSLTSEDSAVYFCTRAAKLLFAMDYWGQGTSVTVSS VL: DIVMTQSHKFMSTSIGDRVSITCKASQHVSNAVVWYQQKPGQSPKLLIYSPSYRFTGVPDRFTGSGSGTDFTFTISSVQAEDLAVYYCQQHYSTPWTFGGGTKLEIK ?
Solution: 67.1

Data provenance: patent US20210095028A1
